- Test system: PPARg:RXRa 30nM:10nM, anti-RXR (NR concentration 30 nM, RXRa partner concentration 10 nM)
- assay summary: PBM binding z-score (relative to random genomic background probes); higher = stronger binding; sequences stand for … in GC…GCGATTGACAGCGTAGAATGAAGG
Okay, here is how we bin by PBM binding z-score: bottom range (below 0.3), center range (0.3 to below 2), top range (2 or more)

1. AGTCAGAGTTCACTAGGTAACGTAAGATTCAGCT | top range
2. TCTTGTAGATCAGCAGGTTAGGAAAGCTGGCCAA | top range
3. TCGAGTAGGTTAGTCGGGGCATTGAGCCAACATA | center range
4. ACAGACAGGTGAGTGAAGGTAACTAAGCTGGACG | bottom range
5. ACAGACAGGTGAGTGAAGGTAACTCAGCTGGACG | bottom range
6. CCGACTGGTGCAAGGTTACCATAACGCACAGCCA | bottom range
7. GGCACGAGGGCAAAGTTGATAGCATCTGTCGACG | top range
8. TCTCGGAGGACCCGAAGGTCAGAGCTTTCCAGAG | center range
9. ATCGAAAGGCCGAGGTGAGTATAGAGAAAGGGAA | bottom range
10. TGTAGTTGGTCACGGAGGTCACACACGACGGGTA | center range
11. CCTTACGGATCACTGACAGGTTATAGCATTTGGA | center range
12. CCGAGTAGGTTATGGGGCATTCAAGCAACGGTGA | top range
13. TCGAGTAGGTAAGTCGGGGCATTCAGCCAACATA | center range
14. ACTATTAGTTGAGACGAGGACAACCGATAGGTTG | bottom range
15. CCCAGTTGGTCAGGAGGTCACACACCGGATATGA | center range
16. AGAATGAGCTTATTAAGATCAGGGAATTGCGGTC | bottom range
17. ACGAGTTGGTCAGCTGAGGTCACACACAATTCGG | bottom range
18. TAGCCTAGGTCAGTGGGCCAGTATAGTACGCATC | center range
19. TCTGCTAGGTCAGTTGTTCAGCTAACGAGCTGCC | center range
20. TAGCCTAGGTCATTGGGCCAGTCTAGTACGCATC | center range
21. GCTAGCAGGCCATTTGGGTCACTCAGTGACGGGC | bottom range
22. ATCTCTAGGTAAAGATAGTTCAGTGATTGCAAAT | center range
23. GCTAGCAGTCCATTTGGGTCACTCAATGACGGGC | bottom range
24. CTACCTAGGTGAACAAGGTCGTTGATTACTATTC | bottom range
25. AGTCAAAGTTCACTAGGTAGCGTAAGATTCAGCT | top range
26. ACAGACAGGTGCGTGAAGGTAACTCAGCTGGACG | bottom range
27. TCTCGGAGGACACGAAGGGTCAGAGCTCGACATC | center range
28. ACTCGGAGTACAAAGGTCAGAGCTACGCCAGTGA | top range
29. TCATATAGGTAATACATGTGAAAGTCGGCATCTA | top range
30. CCCACTGGGCCAAAGGTCATTGATTCCAATGCTC | top range
31. ACTGACAGGTGATGAAGGTAACTCAGGCTATCAT | bottom range
32. CCTTACGGGTCACTGACACGTTATAGCATTTGGA | center range
33. GCAGACAGGTGAAACCCAGGTAACTCAGGGTGGC | bottom range
34. ATATGTAGGTTGAGGGTCATTCAGGTTGGTTCGC | top range
35. AGAATGAGGTTATTAAGATCCGGGAATTGCGGTC | bottom range
36. CCGACTGGGGCAAAGGTTATCATACTCAGTACGA | top range
37. CCTAGCAGGCCAGGGTCACTCATGCATTTCGCTT | bottom range
38. ATCGAAAGGTCGACGAGGTAAGTATACACCGTTT | center range
39. CCGACTGGGGCATATGGTTACCATAAGCCAGCCC | center range
40. TCTGCTAGGTCCACGATGGTCAGCTAATCTGCTA | center range
41. CGTCCAAGGTCAAGGTCGGTGAAAGAGACTCGAA | top range
42. AGAATGAGGTTATTAAGATCAGGAAATTGCGGTC | center range
43. ATATGTAGGTTACATCCGGGTGATTCAGGCTATG | center range
44. GCTATTAGTTCAAAGGGCAACCGAATGATTCTCG | top range
45. ATATGTAGGTTATCGGGTCATTCGGTTTGCGCAT | top range
46. CCTAATGGGCCAAAGGTCATTGATTCCAATGCTC | top range
47. TAGCCTAGGTCATGCGGGCCAGTAAAGTGTCGGC | bottom range
48. CAAACTAGGTCAAGCGGTCAAAGTCCGCTTCCCG | top range
